Values from patent US11051515B2

System: CYPES
Assay: Pre-emergence action against CYPES
Type: in vivo, Cyperus esculentus
Settings: pre-emergence, dosage 320 g/ha, scored visually after 3 weeks vs untreated controls
Pre-emergence action against CYPES (herbicidal activity) values, listed per item
MEASUREMENT_KIND: Pre-emergence action against CYPES (herbicidal activity)

COMPOUND: CCn1nnnc1NC(=O)c1ccc(S(C)(=O)=O)c(C(=O)C2CC2)c1C
ENDPOINT_RESULT: 90%
//
COMPOUND: CCn1nnnc1NC(=O)c1ccc(C(F)(F)F)c(C(=O)C2CC2)c1Cl
ENDPOINT_RESULT: 90%
//
COMPOUND: CCC(=O)c1c(Cl)ccc(C(=O)Nc2nnnn2CC)c1Cl
ENDPOINT_RESULT: 90%
//
COMPOUND: Cn1nnnc1NC(=O)c1ccc(C(F)(F)F)c(C(=O)C2(C)CC2)c1Cl
ENDPOINT_RESULT: 100%
//
COMPOUND: CCC(=O)c1c(C(F)(F)F)ccc(C(=O)Nc2nnnn2CC)c1C
ENDPOINT_RESULT: 90%
//
COMPOUND: CCCn1nnnc1NC(=O)c1ccc(C(F)(F)F)c(C(=O)C2CC2)c1Br
ENDPOINT_RESULT: 80%
//
COMPOUND: CCn1nnnc1NC(=O)c1ccc(S(C)(=O)=O)c(C(C)=O)c1C
ENDPOINT_RESULT: 100%
//
COMPOUND: Cn1nnnc1NC(=O)c1ccc(C(F)(F)F)c(C(=O)CCl)c1Cl
ENDPOINT_RESULT: 100%
//
COMPOUND: CCCC(=O)c1c(C(F)(F)F)ccc(C(=O)Nc2nnnn2CC)c1Cl
ENDPOINT_RESULT: 100%
//
COMPOUND: CCn1nnnc1NC(=O)c1ccc(C(F)(F)F)c(C(=O)C2CC2)c1OC
ENDPOINT_RESULT: 100%
//
COMPOUND: CCn1nnnc1NC(=O)c1ccc(C(F)(F)F)c(C(=O)C2CC2)c1SC
ENDPOINT_RESULT: 100%
//
COMPOUND: CCn1nnnc1NC(=O)c1ccc(C(F)(F)F)c(C(=O)C2(C)CC2)c1Cl
ENDPOINT_RESULT: 80%
//
COMPOUND: CCCn1nnnc1NC(=O)c1ccc(I)c(C(C)=O)c1Cl
ENDPOINT_RESULT: 100%
//
COMPOUND: CCn1nnnc1NC(=O)c1ccc(C(F)F)c(C(C)=O)c1Cl
ENDPOINT_RESULT: 100%
//
COMPOUND: CCn1nnnc1NC(=O)c1ccc(Cl)c(C(C)=O)c1Cl
ENDPOINT_RESULT: 90%
//
COMPOUND: CCn1nnnc1NC(=O)c1ccc(C(F)(F)F)c(C(C)=O)c1C
ENDPOINT_RESULT: 90%
//
COMPOUND: CCCn1nnnc1NC(=O)c1ccc(S(C)(=O)=O)c(C(C)=O)c1C
ENDPOINT_RESULT: 100%
//
COMPOUND: CCCn1nnnc1NC(=O)c1ccc(C(F)(F)F)c(C(=O)C2CC2)c1C
ENDPOINT_RESULT: 90%
//
COMPOUND: CCCn1nnnc1NC(=O)c1ccc(C(F)(F)F)c(C(C)=O)c1Cl
ENDPOINT_RESULT: 90%
//
COMPOUND: CCCn1nnnc1NC(=O)c1ccc(C(F)(F)F)c(C(C)=O)c1C
ENDPOINT_RESULT: 80%
//
COMPOUND: CCn1nnnc1NC(=O)c1ccc(C)c(C(C)=O)c1C
ENDPOINT_RESULT: 80%
//
COMPOUND: CCCn1nnnc1NC(=O)c1ccc(C(F)(F)F)c(C(C)=O)c1Br
ENDPOINT_RESULT: 90%
//
COMPOUND: CCn1nnnc1NC(=O)c1ccc(C(F)(F)F)c(C(C)=O)c1OC
ENDPOINT_RESULT: 100%
//
COMPOUND: CCn1nnnc1NC(=O)c1ccc(C(F)(F)F)c(C(C)=O)c1SC
ENDPOINT_RESULT: 100%
//
COMPOUND: CCn1nnnc1NC(=O)c1ccc(C(F)(F)F)c(C(=O)C(C)(C)C)c1Cl
ENDPOINT_RESULT: 90%
//
COMPOUND: CCCn1nnnc1NC(=O)c1ccc(C(F)F)c(C(=O)C2CC2)c1SC
ENDPOINT_RESULT: 100%
//
COMPOUND: CCCn1nnnc1NC(=O)c1ccc(C(F)(F)F)c(C(C)=O)c1OC
ENDPOINT_RESULT: 90%
//
COMPOUND: CCn1nnnc1NC(=O)c1ccc(C(F)(F)F)c(C(=O)CCl)c1Cl
ENDPOINT_RESULT: 100%
//
COMPOUND: CCn1nnnc1NC(=O)c1ccc(C(F)F)c(C(C)=O)c1SC
ENDPOINT_RESULT: 90%
//
COMPOUND: CCn1nnnc1NC(=O)c1ccc(C(F)(F)F)c(C(=O)COC)c1Cl
ENDPOINT_RESULT: 100%
//
COMPOUND: CCCn1nnnc1NC(=O)c1ccc(SC)c(C(=O)C2CC2)c1Cl
ENDPOINT_RESULT: 80%
//
COMPOUND: CCn1nnnc1NC(=O)c1ccc(C(F)(F)F)c(C(=O)C2CC2C)c1Cl (stereo not drawn)
ENDPOINT_RESULT: 90%
//
COMPOUND: CCCn1nnnc1NC(=O)c1ccc(C)c(C(=O)C2CC2)c1C
ENDPOINT_RESULT: 90%
//
COMPOUND: CCn1nnnc1NC(=O)c1ccc(Cl)c(C(=O)C2CC2)c1Cl
ENDPOINT_RESULT: 90%
//
COMPOUND: CCn1nnnc1NC(=O)c1ccc(SC)c(C(C)=O)c1Cl
ENDPOINT_RESULT: 90%
//
COMPOUND: CCCn1nnnc1NC(=O)c1ccc(C(F)(F)F)c(C(=O)C2CC2)c1OC
ENDPOINT_RESULT: 90%
//
COMPOUND: CCn1nnnc1NC(=O)c1ccc(C(F)(F)F)c(C(C)=O)c1Br
ENDPOINT_RESULT: 100%
//
COMPOUND: CCn1nnnc1NC(=O)c1ccc(S(C)(=O)=O)c(C(=O)C2CC2)c1Cl
ENDPOINT_RESULT: 100%
//
COMPOUND: CCCn1nnnc1NC(=O)c1ccc(C(F)(F)F)c(C(=O)COC)c1Cl
ENDPOINT_RESULT: 100%
//
COMPOUND: CCn1nnnc1NC(=O)c1ccc(SC)c(C(=O)C2CC2)c1Cl
ENDPOINT_RESULT: 90%
//
COMPOUND: CCCn1nnnc1NC(=O)c1ccc(C)c(C(C)=O)c1C
ENDPOINT_RESULT: 90%
//
COMPOUND: CCCn1nnnc1NC(=O)c1ccc(C(F)F)c(C(C)=O)c1Cl
ENDPOINT_RESULT: 100%

---

System: LOLMU
Test: Post-emergence action against LOLMU
Format: in vivo, Lolium multiflorum
Conditions: Lolium multiflorum, 504 h, dosage 80 g/ha, visual assessment about 3 weeks after treatment vs untreated controls, read-out: Post-emergence action against LOLMU (herbicidal action in percent)
pest or weed control at 80 g/ha values, listed per item

INPUT_SMILES: Cn1nnnc1NC(=O)c1ccc(Cl)c(C(=O)C2CC2)c1Cl
pest or weed control at 80 g/ha: 100%
--
INPUT_SMILES: CSc1c(C(=O)Nc2nnnn2C)ccc(C(F)(F)F)c1C(C)=O
pest or weed control at 80 g/ha: 80%
--
INPUT_SMILES: Cc1c(C(=O)Nc2nnnn2C)ccc(C(F)(F)F)c1C(=O)C1CC1
pest or weed control at 80 g/ha: 90%
--
INPUT_SMILES: Cn1nnnc1NC(=O)c1ccc(S(C)(=O)=O)c(C(=O)C2CC2)c1Cl
pest or weed control at 80 g/ha: 80%
--
INPUT_SMILES: CC(=O)c1c(Cl)ccc(C(=O)Nc2nnnn2C)c1Cl
pest or weed control at 80 g/ha: 100%
--
INPUT_SMILES: CCC(=O)c1c(Cl)ccc(C(=O)Nc2nnnn2C)c1Cl
pest or weed control at 80 g/ha: 90%
--
INPUT_SMILES: Cn1nnnc1NC(=O)c1ccc(C(F)(F)F)c(C(=O)C2CC2)c1Cl
pest or weed control at 80 g/ha: 100%
--
INPUT_SMILES: CC(=O)c1c(C(F)(F)F)ccc(C(=O)Nc2nnnn2C)c1Cl
pest or weed control at 80 g/ha: 100%
--
INPUT_SMILES: CSc1ccc(C(=O)Nc2nnnn2C)c(Cl)c1C(C)=O
pest or weed control at 80 g/ha: 90%
--
INPUT_SMILES: CCC(=O)c1c(C(F)(F)F)ccc(C(=O)Nc2nnnn2C)c1Cl
pest or weed control at 80 g/ha: 100%
--
INPUT_SMILES: COc1c(C(=O)Nc2nnnn2C)ccc(C(F)(F)F)c1C(=O)C1CC1
pest or weed control at 80 g/ha: 90%
--
INPUT_SMILES: CC(=O)c1c(C(F)(F)F)ccc(C(=O)Nc2nnnn2C)c1Br
pest or weed control at 80 g/ha: 90%
--
INPUT_SMILES: Cc1c(C(=O)Nc2nnnn2C)ccc(S(C)(=O)=O)c1C(=O)C1CC1
pest or weed control at 80 g/ha: 90%
